// data source = the supplement of paper PMC9170038

System: MS2 coat protein
measurement_protocol: apparent KD of MS2 coat protein; higher = weaker reporter binding
condition_summary: Eterna round: R107; input ligand: tryptophan 2.4 mM
quantity_kind: apparent KD of MS2 coat protein (nM)
One number for each entry, in nM.

Please report apparent KD of MS2 coat protein for every entry that follows.
1. CGUGCUAGGGCGGCCGCCACUGUGGCUACGGUACAUGAGGAUCACCCAUGUUUGUGGUUGAUCUACAGGACCGGGCCCUGGCACG [Radiaerdi]
2. UAAAUAAUCUGGGUGUAGGUAAUAACAGAUACCAGCCAGAUAACUGGCCCUUGGCAGCUGAAAACAUGAGGAUCACCCAUGUAAA [Mat - Same State Theophlline A - Mod of Eli - D19]

Result block:
[280, 57.4]

I would be grateful if you could provide apparent KD of MS2 coat protein for each of the following entries.
1. UGACAUGAGGAUCACCCAUGUGUAAGAGAAGGAGCGGCCGGAAGGCCAGGUAGGUCGCUCAGGUAGCGUGAGGAUCACCCGUGUG [big_hook]
2. AAUUGCGUUGGUGAGGCGGUUAAUGGCGAUACCAGCGUGGAAACACGCCCUUGGCAGCGCCAAAACAUGAGGAUCACCCAUGUUA [Liberec]
3. AAUAAACAUGAGGAUCACCCAUGUAGGGUGCGAGGACCGGUACGGCCGCCACUCGGGUGAAAACAUGAAAAUCACCCAUGUAAAA [Mat - Exclusion - Trytophan A - D24]
4. AAAUAAACAUCGGCCGCCACUUACUCAUGAGGUAACAACAUGAGGAUCACCCAUGUUUGAGGAUCAAGGACCGGGAUGUAAUAAA [AstrosSSTryB#1]
5. GCAGUGGGUUAUAAGUAAUAGAAUUCUGAAGGAGCGUGAUGAAACACAGGUAGGUCGCAGGAACAUGAGGAUCACCCAUGUACGG [Same State Arginine A GF20]
6. UGACAUUGCUCAGAUACCAGACAUGAGGAUCACCCAUGUACCAAGGUACCCGAAAGGAAUGUCCCUUGGCAGCUGAGCAAUGUCU [TheoBX 3 #MS2Left #Theo2 #StaticStem]

Result block:
1: 35.7; 2: 82.5; 3: 232; 4: 19.6; 5: 50.3; 6: 11
